Each record here notes measured koff.
Target: T1, Human CD24 (human, UniProt P25063 27-59, limits assumed)
T1 chain (looked up): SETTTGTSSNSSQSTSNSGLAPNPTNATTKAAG
Experiment: SPR, second 1:1 binding column set
Give your result in s⁻¹ as a bare value.

Before answering, review these 2 worked examples.
binder	quantitativeResult
Antibody No 17, lead clone of 4451H (HC N35G, T59Y; LC L33G) (antibody, V domains shown) VH: QVQLVQSGAEVKKPGASVKVSCKASGYDFTGYHMGWVRQAPGQGLEWMGEINPITSDKYFNQKFKSRVTMTRDTSISTAYMELSRLRSDDTAVYYCARRDYGTSLDYWGQGTTVTVSS VL: DIQLTQSPSFLSASVGDRVTITCRASKSISKYGAWYQQKPGKAPKLLIYAGSTLHSGIPSRFRGSGSGTEFTLTISSLQPEDFATYYCQQHNEYPITFGQGTKLEIK	0.00419
Antibody No 6, lead clone of 4451H (HC N35G; LC L33G) (antibody, V domains shown) VH: QVQLVQSGAEVKKPGASVKVSCKASGYDFTGYHMGWVRQAPGQGLEWMGEINPITSDKTFNQKFKSRVTMTRDTSISTAYMELSRLRSDDTAVYYCARRDYGTSLDYWGQGTTVTVSS VL: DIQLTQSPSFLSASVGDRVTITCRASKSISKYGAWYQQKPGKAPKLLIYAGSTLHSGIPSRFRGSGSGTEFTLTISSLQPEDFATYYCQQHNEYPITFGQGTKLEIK	0.00763

Measured koff, Antibody No 3, lead clone of 4451H (HC N35G; LC L33G, T97I) (antibody, V domains shown) VH: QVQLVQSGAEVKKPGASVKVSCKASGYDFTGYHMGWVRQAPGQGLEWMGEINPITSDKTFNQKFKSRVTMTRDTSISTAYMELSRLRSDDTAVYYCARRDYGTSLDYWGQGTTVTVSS VL: DIQLTQSPSFLSASVGDRVTITCRASKSISKYGAWYQQKPGKAPKLLIYAGSTLHSGIPSRFRGSGSGTEFTLTISSLQPEDFATYYCQQHNEYPIIFGQGTKLEIK : 0.00766

Measured koff, Antibody No 15 (4451HM15), lead clone of 4451H (HC N35G, T59Y; LC K27A) (antibody, V domains shown) VH: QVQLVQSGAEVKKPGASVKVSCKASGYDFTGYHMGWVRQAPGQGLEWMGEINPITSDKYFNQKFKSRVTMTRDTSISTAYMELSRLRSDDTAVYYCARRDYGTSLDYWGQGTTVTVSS VL: DIQLTQSPSFLSASVGDRVTITCRASASISKYLAWYQQKPGKAPKLLIYAGSTLHSGIPSRFRGSGSGTEFTLTISSLQPEDFATYYCQQHNEYPITFGQGTKLEIK : 0.00509
